Reference source: ChEMBL document CHEMBL3244064

# system.under.test: Adrenergic receptor alpha (Rattus norvegicus) (UniProt P15823+P23944+P43140+P22086+P19328+P22909)
# assay.name: Stimulation of alpha-adrenergic receptor in ICEM:CER SPF Caw rat vas deferens assessed as muscle contraction after 2 to 3 mins relative to INPEA
# Assay type: protein assay
result.type: Ratio

> print(dat)
                                   molecule  reading
1  CC(C)N1CCOC(c2ccc([N+](=O)[O-])cc2)C1 (configuration not stated)        1
2  CC(C)(C)N1CCOC(c2ccc([N+](=O)[O-])cc2)C1 (configuration not stated)     0.64
3  CC(C)(C)NCC(O)c1ccc([N+](=O)[O-])cc1 (configuration not stated)     0.27
4  CNCC(O)c1ccc([N+](=O)[O-])cc1 (configuration not stated)     1.04
5  O=[N+]([O-])c1ccc(C2CNCCO2)cc1 (configuration not stated)      1.4
6  NCC(O)c1ccc([N+](=O)[O-])cc1 (configuration not stated)     1.66
7  CN1CCOC(c2ccc([N+](=O)[O-])cc2)C1 (configuration not stated)     0.31
